Data origin, for the record: patent US12404242B2

# Experiment Notes: Plasma and brain tissue levels after oral dose, brain tumor xenograft mice
# Assay type: in vivo, CrTac:NCr-Foxn1nu athymic nude mouse
# Experimental Conditions: CrTac:NCr-Foxn1nu athymic nude, mouse, brain tissue (left, healthy); 6 hours; single oral dose 100 mg/kg; read-out: Brain Tissue Healthy, Left concentration
Outcome Measure: concentration at 6 h (ng/g)

COC1CC(C(=O)NC(=O)Nc2ccc(Oc3ccc(Cl)cn3)c(C)c2)C1 (single isomer, unassigned) [Compound 19A]
1460

---

# Experiment Notes: Kinetic solubility in aqueous PBS buffer (HPLC-MS)
# Assay type: physicochemical
# Experimental Conditions: kinetic from dmso stock, DMSO stock mixed with aqueous PBS buffer, filtered, read-out: Kinetic Solubility
Below, each of the compounds is paired with its reported solubility kinetic value.
Outcome Measure: solubility kinetic (µM)

COC12CC(C(=O)NC(=O)Nc3ccc(Oc4ncc(F)cn4)c(C)c3)(C1)C2
10.9
COC1CC(C(=O)NC(=O)Nc2ccc(Oc3ccc(Cl)cn3)c(C)c2)C1 (stereo not drawn)
5.68
COC1CC(C(=O)NC(=O)Nc2ccc(Oc3ccc(F)cn3)c(C)c2)C1 (stereo not drawn)
14.7
COCCOC1CC(C(=O)NC(=O)Nc2ccc(Oc3ncc(Cl)cn3)c(C)c2)C1 (stereo not drawn)
84.2
COC1CC(C(=O)NC(=O)Nc2ccc(C)c(Oc3ncccn3)c2)C1 (stereo not drawn)
14.8
COC1CCC(C(=O)NC(=O)Nc2ccc(Oc3ncc(Cl)cn3)c(C)c2)CC1 (stereo not drawn)
4.9
COCCOC1CC(C(=O)NC(=O)Nc2ccc(Oc3ccc(Cl)cn3)c(C)c2)C1 (stereo not drawn)
37.5
COC1CC(C(=O)NC(=O)Nc2ccc(Oc3nc4ccccc4s3)c(C)c2)C1 (stereo not drawn)
1
COC12CC(C(=O)NC(=O)Nc3ccc(C)c(Oc4ncccn4)c3)(C1)C2
5.8
COC1CC(C(=O)NC(=O)Nc2ccc(Oc3ccc(C#N)cn3)c(C)c2)C1 (stereo not drawn)
11.6
COC12CC(C(=O)NC(=O)Nc3ccc(Oc4ncccn4)c(C)c3)(C1)C2
27.5
COC1CCC(C(=O)NC(=O)Nc2ccc(Oc3ccc(C#N)cn3)c(C)c2)CC1 (stereo not drawn)
0.53
COC1CC(C(=O)NC(=O)Nc2ccc(C)c(Oc3ccc(F)cn3)c2)C1 (stereo not drawn)
7.2
COC1CC(C(=O)NC(=O)Nc2ccc(Oc3ncns3)c(C)c2)C1 (stereo not drawn)
75
COC1CCC(C(=O)NC(=O)Nc2ccc(Oc3ccc(Cl)cn3)c(F)c2)CC1 (stereo not drawn)
0.28
COC12CC(C(=O)NC(=O)Nc3cc(C)c(Oc4ncc(Cl)cn4)c(F)c3)(C1)C2
2.17
COC1CC(C(=O)NC(=O)Nc2ccc(Oc3nccs3)c(C)c2)C1 (stereo not drawn)
58.4
COC1CC(C(=O)NC(=O)Nc2ccc(C)c(Oc3ccccn3)c2)C1 (stereo not drawn)
11.8
COC1CC(C(=O)NC(=O)Nc2ccc(C)c(Oc3nccs3)c2)C1 (stereo not drawn)
8.9
COC1CC(C(=O)NC(=O)Nc2ccc(Oc3cnc(N4CCOCC4)nc3)c(C)c2)C1 (stereo not drawn)
0.95
COC12CC(C(=O)NC(=O)Nc3ccc(Oc4ncc(Cl)cn4)c(C)c3)(C1)C2
2.21
COC1CCC(C(=O)NC(=O)Nc2ccc(Oc3ccc(Cl)cn3)c(C)c2)CC1 (stereo not drawn)
0.49
COC1CC(C(=O)NC(=O)Nc2ccc(Oc3ncc(Cl)cn3)c(C)c2)C1 (stereo not drawn)
7.1
COC1CCC(C(=O)NC(=O)Nc2ccc(Oc3cnc(N4CCOCC4)nc3)c(C)c2)CC1 (stereo not drawn)
0.39

---

# Experiment Notes: Plasma and brain levels in healthy mouse
# Format: in vivo
# Experimental Conditions: brain, 1 hour, oral dose, read-out: Healthy Brain concentration
Outcome Measure: concentration at 1 h (ng/g)

COC12CC(C(=O)NC(=O)Nc3ccc(C)c(Oc4ccccn4)c3)(C1)C2
234

---

# Experiment Notes: Plasma and brain tissue levels after oral dose, brain tumor xenograft mice
# Format: in vivo, CrTac:NCr-Foxn1nu athymic nude mouse
# Experimental Conditions: CrTac:NCr-Foxn1nu athymic nude, mouse, brain tissue (right, containing tumor); 1 hour; single oral dose 100 mg/kg; read-out: Brain Tissue Tumor, right concentration
Outcome Measure: concentration at 1 h (ng/g)

COC1CC(C(=O)NC(=O)Nc2ccc(Oc3ccc(Cl)cn3)c(C)c2)C1 (single isomer, unassigned) [Compound 19A]
1460

---

# Experiment Notes: Plasma and brain levels in healthy mouse
# Type: in vivo
# Experimental Conditions: plasma, 0.5 hours, oral dose, read-out: Plasma concentration
Outcome Measure: concentration at 0.5 h (ng/mL)

COC12CC(C(=O)NC(=O)Nc3ccc(C)c(Oc4ccccn4)c3)(C1)C2
424

---

# Test system: 22RV1 cells
# Experiment Notes: Cell viability (AlamarBlue), 22RV1 prostate cancer cells
# Type: cell-based, human
# Experimental Conditions: Homo sapiens, 22Rv1, 72 h, 72 hours of treatment
Below, each of the compounds is paired with its reported EC50 value.
Outcome Measure: EC50

COC1CCC(C(=O)NC(=O)Nc2ccc(Oc3ccc(C(C)C)cn3)c(C)c2)CC1 (single isomer, unassigned) [Compound 34A]
5.9 µM
COCCOC1CC(C(=O)NC(=O)Nc2ccc(Oc3ccc(Cl)cn3)c(C)c2)C1 (stereo not drawn)
1.3 µM
COC1CC(C(=O)NC(=O)Nc2ccc(Oc3nncs3)c(C)c2)C1 (stereo not drawn)
30.6 µM
COC1CCC(C(=O)NC(=O)Nc2ccc(Oc3ccc(C)cn3)c(C)c2)CC1 (stereo not drawn)
35 µM
COC1CC(C(=O)NC(=O)Nc2ccc(Oc3ncc(C(F)(F)F)s3)c(C)c2)C1 (stereo not drawn)
1.6 µM
Cc1cc(NC(=O)NC(=O)C2COC2)ccc1Oc1ncc(Cl)cn1
41 µM
COC1CCC(C(=O)NC(=O)Nc2ccc(Oc3cnc(N4CCOCC4)nc3)c(C)c2)CC1 (stereo not drawn)
8 µM
COC1CCC(C(=O)NC(=O)Nc2ccc(Oc3ccc(Cl)cn3)c(F)c2)CC1 (stereo not drawn)
1.9 µM
COC1CC(C(=O)NC(=O)Nc2cc(C)c(Oc3ncccn3)c(F)c2)C1 (stereo not drawn)
1.65 µM
COC1CC(C(=O)NC(=O)Nc2ccc(Oc3cnc(N4CCOCC4)nc3)c(C)c2)C1 (stereo not drawn)
17.8 µM
COC1CCC(C(=O)NC(=O)Nc2ccc(Oc3ncc(F)cn3)c(C)c2)CC1 (stereo not drawn)
26 µM
Cc1cc(NC(=O)NC(=O)C2CC(OCC3CC3)C2)ccc1Oc1ncc(Cl)cn1 (stereo not drawn)
46 µM
Cc1cc(NC(=O)NC(=O)C2CCCCC2)ccc1Oc1ncc(Cl)cn1
12.5 µM
COC1CC(C(=O)NC(=O)Nc2ccc(Oc3cnc(N4CC5(COC5)C4)nc3)c(C)c2)C1 (stereo not drawn)
36 µM
COC1CCC(C(=O)NC(=O)Nc2ccc(Oc3ncc(C(F)(F)F)cn3)c(C)c2)CC1 (stereo not drawn)
4.7 µM
COC1CCC(C(=O)NC(=O)Nc2ccc(Oc3ncc(Cl)cn3)cc2F)CC1 (stereo not drawn)
30.6 µM
COC1CCC(C(=O)NC(=O)Nc2ccc(Oc3cncnc3)c(C)c2)CC1 (stereo not drawn)
37 µM
COC1CC(C(=O)NC(=O)Nc2ccc(Oc3cncnc3)c(C)c2)C1 (stereo not drawn)
39 µM
COC1CC(C(=O)NC(=O)Nc2ccc(Oc3ncns3)c(C)c2)C1 (stereo not drawn)
6.3 µM
COC1CCC(C(=O)NC(=O)Nc2ccc(Oc3ncc(Cl)cn3)c(F)c2)CC1 (single isomer, unassigned) [Compound 14A]
1.1 µM
COC1CC(C(=O)NC(=O)Nc2ccc(Oc3nc(C)c(C)s3)c(C)c2)C1 (stereo not drawn)
0.08 µM
COC1CCC(C(=O)NC(=O)Nc2ccc(Oc3ccc(Cl)cn3)c(C)c2)CC1 (stereo not drawn)
2.9 µM
COC1CC(C(=O)NC(=O)Nc2ccc(Oc3ncc(C#N)s3)c(C)c2)C1 (stereo not drawn)
1 µM
COC1CC(C(=O)NC(=O)Nc2cc(C)c(Oc3ncc(Cl)cn3)c(F)c2)C1 (stereo not drawn)
0.068 µM
COC1CC(C(=O)NC(=O)Nc2cc(C)c(Oc3ccc(F)cn3)c(F)c2)C1 (stereo not drawn)
0.91 µM
COC1CCC(C(=O)NC(=O)Nc2ccc(Oc3ncccn3)c(C)c2)CC1 (stereo not drawn)
12.5 µM
COC1CCC(C(=O)NC(=O)Nc2ccc(Oc3ncc(Cl)cn3)c(C)c2)CC1 (stereo not drawn)
3.7 µM
COC1CC(C(=O)NC(=O)Nc2ccc(Oc3nc4ccccc4s3)c(C)c2)C1 (stereo not drawn)
0.35 µM
COC1CCC(C(=O)NC(=O)Nc2ccc(Oc3ncc(C(C)C)cn3)c(C)c2)CC1 (stereo not drawn)
14.4 µM
COC1CC(C(=O)NC(=O)Nc2ccc(Oc3ncc(C)s3)c(C)c2)C1 (stereo not drawn)
1.2 µM
COC1CCC(C(=O)NC(=O)Nc2ccc(Oc3ncco3)c(C)c2)CC1 (stereo not drawn)
24 µM
COCCOC1CC(C(=O)NC(=O)Nc2ccc(Oc3ncc(Cl)cn3)c(C)c2)C1 (stereo not drawn)
3.2 µM
COC1CCC(C(=O)NC(=O)Nc2ccc(Oc3ccc(F)cn3)c(C)c2)CC1 (stereo not drawn)
5.1 µM
COC1CCC(C(=O)NC(=O)Nc2ccc(Oc3cnc(N4CCN(C)CC4)nc3)c(C)c2)CC1 (stereo not drawn)
34 µM
COC1CCC(C(=O)NC(=O)Nc2ccc(Oc3cnc(N4CC5(COC5)C4)nc3)c(C)c2)CC1 (stereo not drawn)
20 µM
COC1CCC(C(=O)NC(=O)Nc2ccc(Oc3ncccn3)c(F)c2)CC1 (stereo not drawn)
14.1 µM
